Source of measurements: the supplement of paper PMC7411054

# Tested on: HepG2-TUBA1B-RELA
# Measurement protocol: phenotypically active (imaging signature differs from DMSO and reproducible) at any of 0.3-9 uM (binary (1 = active, 0 = inactive)); higher = active
# Assay setup: treatment time: 24 h
Outcome codes: Yes = active, No = inactive

Compound	Class name
CC(CN(C)C)CN1c2ccccc2Sc2ccccc21.CC(CN(C)C)CN1c2ccccc2Sc2ccccc21 (centres undefined) [alimemazine]	Yes
c1ccc2c(c1)CCCC2C1=NCCN1 (centres undefined) [tetrahydrozoline]	No
COc1cc(Br)c(Nc2nc(-c3c(C)nc4ncccn34)cs2)c(Br)c1	Yes
CC(C)[C@H]1CC[C@H](C(=O)N[C@H](Cc2ccccc2)C(=O)O)CC1 [nateglinide]	No
CN1CCCC(n2nc(Cc3ccc(Cl)cc3)c3ccccc3c2=O)CC1 (centres undefined) [azelastine]	Yes
Cc1ccc2ccc(C(Nc3ccccc3)c3ccccc3)c(O)c2n1 (centres undefined)	No
COc1ccc2c(c1)c(CC(=O)O)c(C)n2C(=O)c1ccc(Cl)cc1 [indomethacin]	No
CN1[C@@H]2CC[C@H]1C[C@@H](OC(c1ccccc1)c1ccccc1)C2 [benztropine]	Yes
CC(C)NCC(O)COc1ccc(CC(N)=O)cc1 (centres undefined) [atenolol-()]	No
COc1c(C)cnc(Cn2cnc3c(Cl)nc(N)nc32)c1C	Yes
Nc1ncn([C@@H]2O[C@H](CO)[C@@H](O)[C@H]2O)c(=O)n1 [5-Azacytidine]	Yes
Cc1cc2c(F)c(Oc3ncnn4cc(OC[C@@H](C)O)c(C)c34)ccc2[nH]1 [brivanib]	Yes
COc1cc(C)c(/C=C/C(C)=C/C=C/C(C)=C/C(=O)O)c(C)c1C [acitretin]	No
CN(C)CCCN1c2ccccc2CCc2ccc(Cl)cc21 [clomipramine]	Yes
CCN[C@H]1C[C@H](C)S(=O)(=O)c2sc(S(N)(=O)=O)cc21 [dorzolamide]	No
Cc1ccc(-c2cc(C(F)(F)F)nn2-c2ccc(S(N)(=O)=O)cc2)cc1 [celecoxib]	No
NS(=O)(=O)c1cc(Cl)c(Cl)c(S(N)(=O)=O)c1 [diclofenamide]	No
CC(C)(C)c1cc(NC(=O)Nc2ccc(-c3cn4c(n3)sc3cc(OCCN5CCOCC5)ccc34)cc2)no1 [quizartinib]	Yes
C[C@@H]1COCCN1c1cc(C2(S(C)(=O)=O)CC2)nc(-c2cccc3[nH]ccc23)n1	Yes

====

The reader will find reported phenotypically active values listed item by item below.
# System: A549-TUBA1B-RELA
# Measurement protocol: phenotypically active (imaging signature differs from DMSO and reproducible) at any of 0.3-9 uM (binary (1 = active, 0 = inactive)); higher = active
# Assay setup: treatment time: 24 h
Structures can show the parent of a compound that is named as a salt.
Recorded endpoint: phenotypically active

Compound	Measured
CC[N+](CC)(CC)CCOc1cccc(OCC[N+](CC)(CC)CC)c1OCC[N+](CC)(CC)CC [gallamine-triethiodide]	0
COc1cc(N2CCC(N3CCN(C)CC3)CC2)ccc1Nc1ncnc(Nc2ccccc2S(=O)(=O)C(C)C)n1	1
Cc1ccc2nc(NCCN)c3ncc(C)n3c2c1	1
CC(C)(Oc1ccc(C2CC2(Cl)Cl)cc1)C(=O)O (stereo not drawn) [ciprofibrate]	0
CCC(CC)(NC(=O)C(C)C)C(=O)N[C@@H](CCCNC(=N)N)C(=O)NC1(C(=O)NC(c2ccc(F)cc2)c2ccc(F)cc2)CCCC1	0
COc1cc2c(cc1OC)-c1c/c(=N/c3c(C)cc(C)cc3C)n(C)c(=O)n1CC2 [Trequinsin hydrochloride]	0
CCCCc1nc(Cl)c(CO)n1Cc1ccc(-c2ccccc2-c2nnn[nH]2)cc1	0
O=c1[nH]cnc2[nH]ncc12	0
O=C(Nc1nc2cc(C(F)(F)F)cc(NC3CC3)n2n1)c1cccnc1	1
CC(C)c1c(C(=O)Nc2ccccc2)c(-c2ccccc2)c(-c2ccc(F)cc2)n1CC[C@@H](O)C[C@@H](O)CC(=O)O	0
C#CCN[C@@H]1CCc2ccccc21	0
CON(C)C(=O)N1N=C(c2cc(F)ccc2F)S[C@@]1(CCCN)c1ccccc1 [ARRY 520 trifluoroacetate]	1
CCCc1nn(C)c2c(=O)[nH]c(-c3cc(S(=O)(=O)N4CCN(C)CC4)ccc3OCC)nc12 [Sildenafil citrate]	0
CC/C(=C(\CC)c1ccc(O)c(CN(CC)CC)c1)c1ccc(O)c(CN(CC)CC)c1	1
CN1CCN(C(=O)CN[C@H]2C[C@@H]2c2ccc(OCc3ccccc3)cc2)CC1 [RN 1 dihydrochloride]	1
CCN(CC)CCNc1ccc(CO)c2sc3ccccc3c(=O)c12	1
CC(C)C(=O)c1c(C(C)C)nn2ccccc12	0
CC(C)[C@H]1CC[C@H](C(=O)N[C@H](Cc2ccccc2)C(=O)O)CC1 [nateglinide]	0
